Source of measurements: the supplement of paper PMC9732359

- Assay remarks: protein stability index of a GFP-peptide fusion (yeast GPS) (PSI 1-4); higher = more stable; sorted into four equal gates, so the index is relative within each strain
- Measurement context: ubr1∆
Record yes whenever protein stability index is at 3 or higher; record no when lower.

Worked cases, answers included:
Query sequence	Group
VPVANQFINLAGYKKLG [QCR7]	no
ENANAANNGAAFSPLTT [MED2]	no

Q) Kindly determine if protein stability index recorded for PNFFLTLISENWWHSEF [BRR2] is above or exactly 3.
A) no

---

- Assay remarks: protein stability index of a GFP-peptide fusion (yeast GPS) (PSI 1-4); higher = more stable; sorted into four equal gates, so the index is relative within each strain
- Measurement context: pdr5∆
Measured quantity: protein stability index
Simply state the number, no unit and no words.

Query sequence	Measured quantity	Endpoint value
ANLPWLGKAQNWAKFTA [RPN2]	protein stability index	3.39

Q) Using known records, supply protein stability index for KSNTIPVTSIPSTNKKL [GAL11]
A) 2.87

Q) Report protein stability index, nothing else, for this sequence: QDNKQLYQIWIVMVWLK [YDL116W/NUP84]
A) 2.62

Q) Supply reported protein stability index belonging to this sequence: TGRLFQVEYALEAIKQG [PRE5]
A) 2.5

Q) Quickly give me recorded protein stability index for AECISLICSIGLHSSEY [ECM29]
A) 2.38

Q) Supply measured protein stability index of LHLANEHGLQITHTENY [BRN1] in your reply.
A) 2.79

Q) State, in one line, measured protein stability index of VLTQLTALALKYLIKYN [CSI1]
A) 2.75

Q) Consider the sequence LIIKYQKYWESMRIQIL [GAL11] . State its measured protein stability index.
A) 1.95

Q) Could you please provide reported protein stability index for EEGETSRPLKKVKILEQ [SWI3] ? Thanks!
A) 3.28

Q) Tell me its protein stability index given SEMLAKYSDILLKKATK [CDC53] as the entry.
A) 2.44

---

- Assay remarks: protein stability index of a GFP-peptide fusion (yeast GPS) (PSI 1-4); higher = more stable; sorted into four equal gates, so the index is relative within each strain
- Measurement context: doa10∆
Reported protein stability index by item:
Would you mind answering with just the numeric figure?

Worked cases, answers included:
Query sequence	protein stability index
AIIGLKSGTSHDAIFSI [SNF12]	2.56
EELLAQYESQAPDGSAS [SWP82]	3.02
RKDTVSREVLRYEEFAD [RPC40]	3.38
QNKEIKAERVEDQKVVD [RPL6A]	3.4
RLLITGTPLQNNLHELW [ISW2]	2.68
KRKLDIGKDTFVTRKSR [PRP8]	2.93
TATYNDNMSEEQWLRQF [SNF2]	3.28
DFSLRYISNLLYGVTIC [REC8]	2.13

Q) Supply measured protein stability index of TPEKDLFIGLFTRPLFV [YCS4] in your reply.
A) 1.54

Q) Give protein stability index for FMDETAVALAASDLVLI [SNU114]
A) 2.55

Q) Respond only with protein stability index recorded for IVEQDKSMELFYDIRSL [YJL039C/NUP192]
A) 2.34

Q) Hello, please tell me recorded protein stability index for this one: VMFATNRPNTLDPALLR [RPT1]
A) 2.81

Q) Provide protein stability index value for the following sequence: VKTSPDAKKCIAACTGV [FAS1]
A) 2.41

Q) Name the recorded protein stability index of the sequence listed here: LKMMKLIVDTHVQFRLG [PRP8]
A) 2.53

---

- Assay remarks: protein stability index of a GFP-peptide fusion (yeast GPS) (PSI 1-4); higher = more stable; sorted into four equal gates, so the index is relative within each strain
- Measurement context: doa10∆
# protein stability index values compiled below
Write no unit; give the number alone.

Examples from the recorded data:
Query sequence	Endpoint value
IEKVDRENMICKIDFQK [RRI2]	3.04
ADGPTMREITETIAEAK [RPO21]	3.46
REKVRKLSQYVQEMALG [FAS2]	2.86

Q) Quickly give me recorded protein stability index for MKYVRETSGVTTALLKD [MED8]
A) 2.72

Q) Input AADILCELQVETYGSME [RPN5] , output reported protein stability index.
A) 3.15

Q) Specify protein stability index for DRHIGCAMSGLTADARS [PUP2] and stop.
A) 2.67

Q) Check the records and state protein stability index for DTNSSKPKNTKENLSKS [SIR4]
A) 1.33

---

- Assay remarks: protein stability index of a GFP-peptide fusion (yeast GPS) (PSI 1-4); higher = more stable; sorted into four equal gates, so the index is relative within each strain
- Measurement context: ubr1∆
Decision: protein stability index compared against 3; not below it gives label 1, below it gives label 0.

Worked examples, 4 sequences total:
Query sequence	Group
GTSLKVAPVSEIVNMVP [SIR2]	label 0
ALRGMFKDRFKDEPVQN [FAS2]	label 1
NTSFSFTKPPANETDKR [YOR098C/NUP1]	label 1
TIYNLQHHVTDADKLSF [YML031W/NDC1]	label 0

Q) Quick check: does KTPLLKQYLSASFSLKN [RPL6A] have protein stability index greater than or equal to 3?
A) label 0

---

- Assay remarks: protein stability index of a GFP-peptide fusion (yeast GPS) (PSI 1-4); higher = more stable; sorted into four equal gates, so the index is relative within each strain
- Measurement context: ubr1∆
Measured quantity: protein stability index
Would you mind answering with just the numeric figure?

Before answering, review these 6 worked examples.
Query sequence	protein stability index
VKDELMFSPLVDSGSND [RPO21]	3.21
EDSSILQSIVNEISRNG [PCI8]	3.41
NGDLTVSLCAKNMGLVP [SSN2]	2.17
NSISSQPASYHSVQETN [SSN2]	2.69
HMATALQIAQLTLKHRQ [RPN10]	1.62
LYRLSTPLRDEVTDKNY [PRP8]	3.11

Q) Identify protein stability index associated with the sequence QLLMGDIPELSFFHQSN [RPN3]
A) 2.62

Q) Return the recorded protein stability index value; entry: SLNSMTNAKLPNVDLVT [RGR1]
A) 2.46

Q) # return recorded protein stability index for entry EENGDSIKEHSTTMDGA [MED1]
A) 3.57

Q) Query protein stability index for SLMDTLITPAVRNTAPN [YCG1]
A) 1.92

Q) Find the measured protein stability index of FTLWWSPTINRANVYVG [PRP8] and report it.
A) 2.04

Q) Provide measured protein stability index value, entry: VTDNKTPEMNVTNNVEE [TAF14]
A) 3.2

---

- Assay remarks: protein stability index of a GFP-peptide fusion (yeast GPS) (PSI 1-4); higher = more stable; sorted into four equal gates, so the index is relative within each strain
- Measurement context: ubr1∆
Measured quantity: protein stability index
// no unit string in output, number only

Query sequence	protein stability index
IEQCKHPLHELIIQYPP [ISW2]	3.1
NTDLKDIIQGNPLMYSG [PCI8]	3.2
ILECDLLICIGTSLKVA [SIR2]	1.73
LFEQLQTVSNKEDAKAT [SRP54]	3.18
KSNGLAPEIPEDLYYLI [RPS13]	2.4
EATSNTNSEDKLSKVQL [MED4]	2.93
DQFITSLKCTDPYELKG [ITC1]	2.95
MKSLLTELSNKETTIEK [YIL149C/MLP2]	3.25
KKIVDSKKLNLKIHQSH [YMR129W/POM152]	2.69
GFSMNNPYNIVPQGKIV [SMC3]	3.09

Q) Supply protein stability index value. Item: RSSSASNEFVPNTSDNN [SWI1]
A) 2.9

Q) Give the value of protein stability index reported for the following: AELIPELYSFQQLVDSE [SNF12]
A) 1.87

Q) Return the recorded protein stability index value; entry: QRQYKVQLLLHINSILL [SNF11]
A) 1.96

Q) Provide only the value of recorded protein stability index for AENMLEELRGQQTEHET [SMC4]
A) 3.4

---

- Assay remarks: protein stability index of a GFP-peptide fusion (yeast GPS) (PSI 1-4); higher = more stable; sorted into four equal gates, so the index is relative within each strain
- Measurement context: pdr5∆
In this section we review reported protein stability index values for a set of sequences.
// keep it numeric: no unit symbol after the value

Please review the following examples before continuing.
Query sequence	Measured quantity	Endpoint value
VNNRDSEKGFSKEQIHG [YCS4]	protein stability index	3.49
NVNETMSRSLANGIINV [SMC3]	protein stability index	2.76
DRTMLAPMDFAIVVGWR [FAS1]	protein stability index	2.43

Q) Please report the measured protein stability index for VENIERVVMMKYDRKVP [RPO21]
A) 2.67

Q) Name the recorded protein stability index of the item MAQRVTFRRRNPYNTRS [RPL34A] in your answer.
A) 1.82

Q) Specify reported protein stability index for the sequence shown: AVAHHTDCKFIRVSGAE [RPT6]
A) 3.21

Q) Note protein stability index for the sequence shown: TLERVHLSYCSNLTIYP [GRR1]
A) 3

Q) Consider the sequence QTARKSTGGKAPRKQLA [HHT1] and give its recorded protein stability index.
A) 3.29
